- STUDY SYSTEM: Beta-2 adrenergic receptor (Homo sapiens) (UniProt P07550)
- Sequence (P07550 whole entry, looked up): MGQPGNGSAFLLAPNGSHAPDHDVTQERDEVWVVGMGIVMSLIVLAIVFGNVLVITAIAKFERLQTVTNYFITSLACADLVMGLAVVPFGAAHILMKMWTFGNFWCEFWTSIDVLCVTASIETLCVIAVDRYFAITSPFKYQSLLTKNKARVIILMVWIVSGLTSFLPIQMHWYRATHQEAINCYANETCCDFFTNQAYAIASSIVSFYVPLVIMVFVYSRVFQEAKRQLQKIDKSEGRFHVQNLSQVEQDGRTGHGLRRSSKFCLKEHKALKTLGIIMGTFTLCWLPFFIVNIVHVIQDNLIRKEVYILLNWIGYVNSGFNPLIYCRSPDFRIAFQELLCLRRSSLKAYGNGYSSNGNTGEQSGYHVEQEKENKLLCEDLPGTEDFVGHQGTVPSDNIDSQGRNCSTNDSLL
- ASSAY SUMMARY: Displacement of [3H]dihydroalprenolol from human adrenergic beta-2 receptor expressed in CHO cells at 10 uM
- Format: cell-based
MEASUREMENT LABEL: inhibition (%)

Here is how some molecules turned out for inhibition.
C[C@@H](Oc1ccc(CCNC[C@H](O)c2ccccc2)cc1)C(=O)O	2
C[C@H](Oc1ccc(CCNC[C@H](O)c2ccccc2)cc1)C(=O)O (single isomer, unassigned)	1
CC(Oc1ccc(CCNCC(O)c2ccccc2)cc1)C(=O)O (racemic)	24
C[C@H](Oc1ccc(CCNC[C@@H](O)c2ccccc2)cc1)C(=O)O	9
CC(C)(Oc1ccc(CCNC[C@H](O)c2ccccc2)cc1)C(=O)O	1

(P) C[C@@H](Oc1ccc(CCNC[C@@H](O)c2ccccc2)cc1)C(=O)O (single isomer, unassigned)
(Q) CC(C)(Oc1ccc(CCNC[C@@H](O)c2ccccc2)cc1)C(=O)O
Out of P and Q , name the one with the higher inhibition. Pick one; state its label.
Q
(Q: 5%, P: 1%)

* * *

- STUDY SYSTEM: Beta-1 adrenergic receptor (Homo sapiens) (UniProt P08588)
- Sequence (P08588 whole entry, looked up): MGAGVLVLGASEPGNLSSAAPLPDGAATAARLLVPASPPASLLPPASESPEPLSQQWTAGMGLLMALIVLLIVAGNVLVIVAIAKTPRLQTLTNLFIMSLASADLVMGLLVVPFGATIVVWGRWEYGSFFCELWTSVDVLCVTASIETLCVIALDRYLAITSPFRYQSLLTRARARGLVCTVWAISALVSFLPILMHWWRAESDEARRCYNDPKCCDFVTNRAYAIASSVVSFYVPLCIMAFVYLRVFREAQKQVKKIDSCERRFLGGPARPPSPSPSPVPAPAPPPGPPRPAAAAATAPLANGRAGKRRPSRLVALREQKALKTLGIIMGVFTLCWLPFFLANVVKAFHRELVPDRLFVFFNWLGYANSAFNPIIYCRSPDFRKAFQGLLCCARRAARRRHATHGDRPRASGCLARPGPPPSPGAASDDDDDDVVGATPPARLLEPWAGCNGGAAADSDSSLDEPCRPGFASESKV
- ASSAY SUMMARY: Displacement of [3H]dihydroalprenolol from human adrenergic beta-1 receptor expressed in CHO cells at 10 uM
- Format: cell-based
MEASUREMENT LABEL: inhibition (%)

CC(C)(Oc1ccc(CCNCC(O)c2ccccc2)cc1)C(=O)O (racemic)	18
C[C@@H](Oc1ccc(CCNC[C@@H](O)c2ccccc2)cc1)C(=O)O (single isomer, unassigned)	10

(P) C[C@H](Oc1ccc(CCNC[C@@H](O)c2ccccc2)cc1)C(=O)O
(Q) CC(C)(Oc1ccc(CCNC[C@H](O)c2ccccc2)cc1)C(=O)O
Out of P and Q , name the one with the higher inhibition. Pick one; state its label.
P

* * *

- STUDY SYSTEM: Peroxisome proliferator-activated receptor alpha (Mus musculus)
- ASSAY SUMMARY: Agonist activity at mouse PPARalpha receptor in monkey COS7 cells assessed as activation of CAT reporter gene at 50 uM by transactivation assay relative to Wy,14-643
- Format: functional, cell-based
- EXPERIMENTAL PARAMETERS: COS-7
MEASUREMENT LABEL: Activity (%)

CC(Oc1ccc(CCNCC(O)c2ccccc2)cc1)C(=O)O (racemic)	1.5
CC(C)(Oc1ccc(CCNCC(O)c2ccccc2)cc1)C(=O)O (racemic)	2
C[C@H](Oc1ccc(CCNC[C@H](O)c2ccccc2)cc1)C(=O)O (single isomer, unassigned)	1.6
C[C@@H](Oc1ccc(CCNC[C@@H](O)c2ccccc2)cc1)C(=O)O (single isomer, unassigned)	1.3
CC(C)(Oc1ccc(CCNC[C@@H](O)c2ccccc2)cc1)C(=O)O	1.7

* * *

- STUDY SYSTEM: Beta-1 adrenergic receptor (Homo sapiens) (UniProt P08588)
- ASSAY SUMMARY: Displacement of [3H]dihydroalprenolol from human adrenergic beta-1 receptor expressed in CHO cells at 10 uM
- Type: cell-based
MEASUREMENT LABEL: inhibition (%)

CC(Oc1ccc(CCNCC(O)c2ccccc2)cc1)C(=O)O (racemic)	37

(1) CC(C)(Oc1ccc(CCNC[C@@H](O)c2ccccc2)cc1)C(=O)O
(2) C[C@H](Oc1ccc(CCNC[C@H](O)c2ccccc2)cc1)C(=O)O (single isomer, unassigned)
(3) C[C@@H](Oc1ccc(CCNC[C@H](O)c2ccccc2)cc1)C(=O)O
// smallest inhibition at index 0, largest at the end # answer = labels listed in requested order
3, 1, 2
(3: 6%, 1: 13%, 2: 28%)
